- system-under-test: LptA (Escherichia coli, UniProt P0ADV1)
- Sequence (P0ADV1 28-185): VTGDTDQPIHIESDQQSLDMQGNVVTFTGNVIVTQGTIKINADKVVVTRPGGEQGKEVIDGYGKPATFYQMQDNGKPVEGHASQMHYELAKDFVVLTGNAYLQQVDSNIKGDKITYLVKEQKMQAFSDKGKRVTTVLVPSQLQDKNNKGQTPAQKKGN
pKd: −log10 of the molar value.

| compound | pKd |
| --- | --- |
| CN(C)c1ccc(/C=C/c2cc(C(C)(C)C)[o+]c(C(C)(C)C)c2)cc1 [IMB-0042] | 5.33 |

----------
- system-under-test: LptC (Escherichia coli, UniProt P0ADV9)
- Sequence (P0ADV9 1-191): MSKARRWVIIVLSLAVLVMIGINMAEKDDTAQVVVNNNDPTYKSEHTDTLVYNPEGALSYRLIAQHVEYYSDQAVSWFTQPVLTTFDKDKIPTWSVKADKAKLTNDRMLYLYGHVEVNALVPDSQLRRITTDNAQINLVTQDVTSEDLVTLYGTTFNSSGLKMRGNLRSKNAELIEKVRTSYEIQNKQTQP

| compound | Kd / µM |
| --- | --- |
| CN(C)c1ccc(/C=C/c2cc(C(C)(C)C)[o+]c(C(C)(C)C)c2)cc1 [IMB-0042] | 32.6 |
